Every entry's value here was drawn from BindingDB's records for doi:10.1021/jm9705519.

Consider the following compounds and their measured IC50 readings.
# targetUnderTest: Sigma non-opioid intracellular receptor 1 (Cavia porcellus) (UniProt Q60492)
# Sequence (Q60492 whole entry, looked up): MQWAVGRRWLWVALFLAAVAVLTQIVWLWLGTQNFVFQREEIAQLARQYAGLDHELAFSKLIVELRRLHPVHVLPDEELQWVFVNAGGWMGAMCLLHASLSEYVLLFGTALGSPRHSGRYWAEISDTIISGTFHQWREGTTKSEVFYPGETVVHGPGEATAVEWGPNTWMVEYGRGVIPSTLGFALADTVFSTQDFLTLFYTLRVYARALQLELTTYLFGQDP
# measurementDescription: Binding affinity was evaluated using [3H]pentazocine binding to sigma-1 receptor from guinea pig brain
parameter: IC50 (nM)

INSERT INTO results (compound, targetundertest, measurementunit, valuemeasured) VALUES
  ('CC1CN(CCCn2c3ccccc3c3ccccc32)CC(C)N1CCCN=C=S (centres undefined)', 'Sigma non-opioid intracellular receptor 1 (Cavia porcellus) (UniProt Q60492)', 'nM', 1830),
  ('C[C@H]1CN(CCCn2c3ccccc3c3ccccc32)C[C@H](C)N1C', 'Sigma non-opioid intracellular receptor 1 (Cavia porcellus) (UniProt Q60492)', 'nM', 897),
  ('CC1CN(CCCn2c3ccccc3c3ccccc32)CC(C)N1CCN=C=S (centres undefined)', 'Sigma non-opioid intracellular receptor 1 (Cavia porcellus) (UniProt Q60492)', 'nM', 949),
  ('CC1CN(CCCn2c3ccccc3c3ccccc32)CC(C)N1CCCCCCN=C=S (centres undefined)', 'Sigma non-opioid intracellular receptor 1 (Cavia porcellus) (UniProt Q60492)', 'nM', 707);
